# Target entity: human GPBAR1 receptor (Homo sapiens (Human))
# Sequence (Q8TDU6 whole entry): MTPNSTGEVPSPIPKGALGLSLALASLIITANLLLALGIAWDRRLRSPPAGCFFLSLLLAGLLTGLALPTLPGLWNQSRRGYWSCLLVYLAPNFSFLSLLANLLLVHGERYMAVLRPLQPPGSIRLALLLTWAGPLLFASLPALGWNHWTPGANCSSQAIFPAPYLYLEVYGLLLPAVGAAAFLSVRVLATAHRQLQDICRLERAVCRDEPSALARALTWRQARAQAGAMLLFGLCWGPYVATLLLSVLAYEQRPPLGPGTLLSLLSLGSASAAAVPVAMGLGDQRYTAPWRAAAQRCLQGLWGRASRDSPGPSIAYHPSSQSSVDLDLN
# Experiment description: functional cAMP assay in CHO-dhfr(minus) cells expressing human GPBAR1 receptors
# Experimental context: CHO-dhfr(minus) cells expressing human GPBAR1, 30 min at 30° C.
# label = rule met if EC50 < 50 nM else rule not met

**Q:** Find out if reported EC50 for COc1cc(F)ccc1-c1ccncc1N(C)C(=O)c1cc(C(F)(F)F)cc(S(=O)(=O)N2CCOCC2)c1 [Example 256] is less than 50 nM
**A:** rule met

**Q:** Given CN(C(=O)c1cc(C(F)(F)F)cc(S(C)(=O)=O)c1)c1cnccc1-c1ccccc1OCc1ccccc1 [Example 258] , is recorded EC50 strictly lower than 50 nM?
**A:** rule not met

**Q:** Item CN(C(=O)c1cc(C(F)(F)F)cc(S(C)(=O)=O)c1)c1cnccc1-c1ccccc1OC1CC1 [Example 242] : EC50 beneath 50 nM, strictly?
**A:** rule met

**Q:** In the record for CC(C)Oc1ccccc1-c1ccncc1N(C)C(=O)c1cc(C(F)(F)F)cc(C(F)(F)F)c1 [Example 35] , is EC50 less than 50 nM?
**A:** rule not met

**Q:** Does the reported EC50 of COc1cc(F)ccc1-c1ccncc1N(C)C(=O)c1cc(C(F)(F)F)cc(S(=O)(=O)CCO)c1 [Example 218] stay below 50 nM?
**A:** rule not met

**Q:** Item COc1cc(F)ccc1-c1ccncc1N(CC(F)(F)F)C(=O)c1cc(C(F)(F)F)nc(C(F)(F)F)c1 [Example 147] : EC50 beneath 50 nM, strictly?
**A:** rule met

**Q:** Is EC50 strictly under 50 nM for the entry NC(=O)CN(C(=O)c1cc(C(F)(F)F)cc(C(F)(F)F)c1)c1cnccc1-c1ccccc1Cl [Example 117] ?
**A:** rule not met
